# tested_on: recombinant NRP2 isoform a (human) (UniProt O60462)
# method_notes: BLI (Octet RED96e)
Recorded pKd, one value per entry.
Answer as the number alone; pKd is minus log10 of concentration in mol/L.

Some binders with recorded pKd:
[
  {
    "binder": "aNRP2-401v6 (antibody, V domains shown) VH: EVQLVESGGGLVQPGGSLRLSCAASGFTFSDYGMHWVRQAPGKGLEWVSTISRDINTVYYADTVKGRFTISRDNAKNSLYLQMNSLRAEDTAVYYCARGGYTDYWGQGTTVTVSS VL: DIVMTQTPLSLSVTPGQPASISCRSSQSLVHSNGNTYLYWYLQKPGQSPQLLIYKVSNRFSGVPDRFSGSGSGTDFTLKISRVEAEDVGVYYCAQSTHPLTFGGGTKVEIK",
    "measured_result": 9.79
  },
  {
    "binder": "aNRP2-401v8 (antibody, V domains shown) VH: EVQLVESGGGLVQPGGSLRLSCAASGFTFSDYGMHWVRQAPGKGLEWVSTISRDIQTVYYADTVKGRFTISRDNAKNSLYLQMNSLRAEDTAVYYCARGGYTDYWGQGTTVTVSS VL: DIVMTQTPLSLSVTPGQPASISCRSSQSLVHSNGNTYLYWYLQKPGQSPQLLIYKVSNRFSGVPDRFSGSGSGTDFTLKISRVEAEDVGVYYCAQSTHPLTFGGGTKVEIK",
    "measured_result": 10.00
  }
]

Value lookup for pKd; key = aNRP2-401v5 (antibody, V domains shown) VH: EVQLVESGGGLVQPGGSLRLSCAASGFTFSDYGMHWVRQAPGKGLEWVSTISRDINTVYYADTVKGRFTISRDNAKNSLYLQMNSLRAEDTAVYYCARGGYTDYWGQGTTVTVSS VL: DIVMTQTPLSLSVTPGQPASISCRSSQSLVHSNGNTYLYWYLQKPGQSPQLLIYKVSNRFSGVPDRFSGSGSGTDFTLKISRVEAEDVGVYYCSQSTHVLTFGGGTKVEIK
9.41

What does the data say about its pKd? Entry: aNRP2-401v7 (antibody, V domains shown) VH: EVQLVESGGGLVQPGGSLRLSCAASGFTFSDYGMHWVRQAPGKGLEWVSTISRSINTVYYADTVKGRFTISRDNAKNSLYLQMNSLRAEDTAVYYCARGGYTDYWGQGTTVTVSS VL: DIVMTQTPLSLSVTPGQPASISCRSSQSLVHSNGNTYLYWYLQKPGQSPQLLIYKVSNRFSGVPDRFSGSGSGTDFTLKISRVEAEDVGVYYCAQSTHPLTFGGGTKVEIK
9.85
